Origin of the recorded values: PubChem BioAssay (NCI)

tested on: NCI/ADR-RES ovarian; assay: NCI-60 one-dose screen, 48 h; settings: 10 µM unless noted
The panel holds about 83,000 compounds, 20% with a hit somewhere; the sample as a whole holds those more often. Active and inactive are the calls of the source. The calls were made as follows: active = growth percent below 10; inactive = the rest.
Outcome codes: active, inactive

>>> class_assignment("CCNCCNc1cc(-c2ccc(C(F)(F)F)cc2)c(C#N)c2nc3cc(Cl)c(Cl)cc3n12")
"active"
>>> class_assignment("COc1cc(NC(=O)c2cccc(-c3cc(=O)c4c(O)c(OC)c(OC)cc4o3)c2)cc(OC)c1OC")
"inactive"
>>> class_assignment("COc1cc(NC(=O)c2cccc(-c3cc(=O)c4c(OC)c(OC)c(OC)cc4o3)c2)cc(OC)c1OC")
"inactive"
>>> class_assignment("CN1CCN(c2ccc(Nc3ncc(Cl)c(NC[C@@H]4CCCO4)n3)cc2)CC1")
"inactive"
>>> class_assignment("COc1cc(C2CC(=O)Nc3n[nH]c(-c4ccccc4)c32)cc(OC)c1OC (stereo not given)")
"inactive"
>>> class_assignment("N#Cc1c(NC(=O)c2ccccc2I)sc2c1CCCC2")
"inactive"
>>> class_assignment("COC(=O)Nc1nc2ccc(C(=O)C3CC3)cc2[nH]1")
"active"
>>> class_assignment("CN(C)c1ccc(C#Cc2c(F)cccc2Cl)cc1")
"inactive"
>>> class_assignment("CC(=O)Nc1ccc(C(=O)/C=C/c2ccccc2)cc1")
"inactive"
>>> class_assignment("CCN(CC)CC(=O)Nc1cccc(C(=O)OC(C)C)c1")
"inactive"

###

System: RXF 393 renal
Test: NCI-60 one-dose screen, 48 h (100 = growth as untreated, 0 = no growth, -100 = all killed)
Conditions: 10 µM unless noted
Procedure: Cells are grown in 96 well plates and exposed to the test compound for 48 hours. Compounds are tested at a single concentration, which is 10^-5 M for most compounds. The reported endpoint is percent growth (GI% or GIPRCNT), where numbers from 0 - 100% represent growth inhibition, and numbers from -100% - 0 represent cell death. For example, a value of 40 represents 60% growth inhibition. A value of 0 means no net growth occurred over the course of the experiment. […]
The panel holds about 83,000 compounds, 20% with a hit somewhere; the sample as a whole holds those more often.
// growth lookup, one value per entry
readout: growth (%)

>>> readout_number("CN(C)c1ccc2cc(-c3ccc(Cl)c(Cl)c3)c(N)nc2c1")
63
>>> readout_number("C(=C\\c1nc2ccccc2[nH]1)/c1nc2ccccc2[nH]1")
122
>>> readout_number("CS(=O)(=O)c1ccc(N/N=C/c2c(-c3ccc(S(C)(=O)=O)cc3)[nH]c3ccc(F)cc23)cc1")
-10.9
>>> readout_number("COc1ccc(C(=O)/C=C/C23c4ccccc4C(c4ccccc42)C2C(=O)NC(=O)C23)cc1 (stereo not given)")
95.9
>>> readout_number("CCN(CC)c1ccc(Nc2ccc(CC(=O)c3ccccc3)cc2)cc1")
89.2
>>> readout_number("C[C@@H]1C(=O)N(C[C@@H](Cc2ccccc2)NC(=O)OCc2ccccc2)[C@]1(Cc1ccccc1)C(=O)OCc1ccccc1")
34.8
>>> readout_number("NC(N)=N/N=C(/c1ccccc1)c1ccccc1F")
43
>>> readout_number("O=C(Oc1ccc([N+](=O)[O-])cc1)c1ccc(CBr)cc1")
114
>>> readout_number("COC(=O)c1ccc(CSc2nnc(-c3ccncc3)o2)cc1")
122
>>> readout_number("O=[N+]([O-])c1ccccc1C(O)Cc1ccc2ccccc2n1 (stereo not given)")
91.2

###

test system: M14 melanoma; experiment: NCI-60 one-dose screen, 48 h; conditions: 10 µM unless noted
The panel holds about 83,000 compounds, 20% with a hit somewhere; the sample as a whole holds those more often. The source made the active and inactive calls. How the source made its calls: active means growth percent below 10; inactive means the rest.
Outcomes: active, inactive

>>> class_assignment("Cc1cc(-c2ccccc2)cc(SC#N)[n+]1[O-]")
"inactive"
>>> class_assignment("COc1ccc(-c2nnc(-c3ccc4c(c3)nc(-c3ccccc3)n4C3CCCCC3)o2)cc1")
"inactive"
>>> class_assignment("N#Cc1c(N)n2c(nc1=Nc1ccc([N+](=O)[O-])cc1)sc1cc(Cl)ccc12")
"inactive"
>>> class_assignment("COC(=O)/C(=C\\c1ccc(OC)cc1)C(=O)N1c2ccccc2Sc2ccccc21")
"inactive"
>>> class_assignment("CC(C)(C)c1ccc(C(=O)Nc2sc3c(c2C(N)=O)CCC(=O)C3)cc1")
"active"
>>> class_assignment("COc1ccc(/C=C(\\C#N)n2nnc3cc(F)c(F)cc32)c(OC)c1OC")
"inactive"
>>> class_assignment("C[C@@H]1C(=O)N(C[C@@H](Cc2ccccc2)NC(=O)OCc2ccccc2)[C@]1(Cc1ccccc1)C(=O)OCc1ccccc1")
"inactive"
>>> class_assignment("O=C1NCC(=O)N(Cc2ccco2)[C@H]1Cc1ccccc1")
"inactive"
>>> class_assignment("COc1ccc(-c2cncnc2N)cc1OC")
"inactive"
>>> class_assignment("Cc1cn(C2CCCCC2)c(=O)[nH]c1=O")
"inactive"

###

system: IGROV1 ovarian; test: NCI-60 one-dose screen, 48 h (100 = growth as untreated, 0 = no growth, -100 = all killed); conditions: 10 µM unless noted
This is part of a sample that, as a whole, favours compounds with a hit. Of some 83,000 tested, about 20% had one in any assay.
Parameter growth: see the listing below.
readout: growth (%)

>>> readout_number("N=C(N)c1ccc(-c2ccc(-c3ccc(Cl)cc3Cl)o2)nc1")
25.4
>>> readout_number("CCN(CC)S(=O)(=O)c1ccc(O)c(NC(=O)c2[nH]c(C)c(C(C)=O)c2CCc2ccc(Cl)cc2)c1")
45.5
>>> readout_number("O=C(/C=C/C12c3ccccc3C(c3ccccc31)C1C(=O)N(c3ccc(Cl)cc3)C(=O)C12)c1ccccn1 (stereo not drawn)")
-36.6
>>> readout_number("CCN(CC)CCCNC(=O)c1ccc(N)cc1O")
91.8
>>> readout_number("COc1ccccc1NC(=O)Nc1ccc(-c2nc3ccccc3o2)cc1")
104
>>> readout_number("COc1ccc(C2=NC(=O)NC2c2ccc(OC)cc2)cc1 (stereo not drawn)")
77.8
>>> readout_number("CC1(C)C(=O)/C(=C\\c2cccnc2)C[C@]2(C)[C@H]3CC=C4[C@@H]5C[C@@](C)(C(=O)O)CC[C@]5(C)CC[C@@]4(C)[C@]3(C)CC[C@@H]12")
103
>>> readout_number("Cc1ccc(C)c2c1C(=O)OC2=O")
92
>>> readout_number("COc1cc(C2CC(=O)Nc3n[nH]c(-c4ccccc4)c32)cc(OC)c1OC (stereo not drawn)")
71.4
>>> readout_number("CCCCOc1nc2ccc(Cl)cc2cc1/C=C/C(=O)/C=C1/CC(c2cc3cc(Cl)ccc3nc2OCCCC)Nc2ccccc2N1 (stereo not drawn)")
67.2
>>> readout_number("COc1cc2c(cc1OC)-c1ccc3cc4c(cc3c1N(CCN(C)C)C2)OCO4")
-31.2
>>> readout_number("C/C(=N\\NC(=O)Cn1c(-c2ccc(S(C)(=O)=O)cc2)nc2cc(Cl)ccc21)c1ccc(Cl)cc1")
70.6
>>> readout_number("COC(=O)Nc1nc2ccc(C(=O)C3CC3)cc2[nH]1")
-59.4
>>> readout_number("O=c1[nH]c(=O)n(C2CC(O)C(CO)O2)cc1CO (stereo not drawn)")
124
>>> readout_number("Cc1cc(N(CCCNc2ccnc3cc(Cl)ccc23)Cc2ccccn2)nc(N2CCCC2)n1")
87.5
>>> readout_number("COc1ccc(Oc2nc(Nc3ccc(N4CCCCC4)nc3)ncc2NC(=O)c2cc(OC)cc(OC)c2)cc1")
58.3
>>> readout_number("COC(=O)CNC(=O)C(=O)c1c(O)c(O)c(C(C)C)c2cc(C)c(-c3c(C)cc4c(C(C)C)c(O)c(O)c(C(=O)C(=O)NCC(=O)OC)c4c3O)c(O)c12")
21.1
>>> readout_number("CCOc1cccnc1/C=N/NC(N)=S")
-7.7
>>> readout_number("N#Cc1c(N)nc2c(nnn2-c2cccc(Br)c2)c1N")
93.5
>>> readout_number("CC(C)CCC[C@@H](C)[C@H]1CCC2C3=CCC4C(=O)C=CC(=O)C4C3CC[C@@]21C (stereo partly drawn)")
-63.2
>>> readout_number("CN(C)c1ccc(/C=C/c2c(F)cccc2F)cc1")
59.7
>>> readout_number("CC1=NN(c2cccc(Cl)c2)C(=O)/C1=C\\c1cn(CC(O)CN2CCCCC2)c2ccccc12 (stereo not drawn)")
49.8
>>> readout_number("O=C(Nc1ccc(N2CCCCC2)c(Cl)c1)c1ccc(Br)o1")
75.1
>>> readout_number("Cc1nc(Nc2ccc(NC(=S)Nc3ccccc3)cc2)nc2nc(SCc3ccccc3)[nH]c(=O)c12")
65.7
>>> readout_number("CCn1c(Sc2nnc(NC(=O)CCN3CCCC3)s2)nc2c1c(=O)n(C)c(=O)n2C")
115
>>> readout_number("COC(=O)[C@]12CC[C@@H](C)[C@H](C)[C@@H]1C1=CC[C@@H]3[C@@]4(C)C(C=O)=C[C@@](C)(CO)C4=CC[C@@]3(C)[C@]1(C)CC2")
45.4
>>> readout_number("O=C(CCc1nc(-c2cccc(Cl)c2)no1)Nc1ccccn1")
90.4
>>> readout_number("Cc1cc(Cc2cc(C)cc(C(C)(C)C)c2O)c(O)c(C(C)(C)C)c1")
47.5
>>> readout_number("O=C(NCc1cn(Cc2cccc(Oc3ccccc3)c2)nn1)c1cccnc1NCc1ccc(Cl)cc1")
60.1
>>> readout_number("Cc1cnc(Nc2ccc(OCCN3CCCC3)cc2)nc1NCc1ccco1")
71
>>> readout_number("C[C@@H]1CC[C@@H]2[C@@H]1[C@H](OC(=O)/C=C/c1ccccc1)[C@]1(C3CCCCC3)C[C@@H](NC(=O)CO)[C@@]2(C)O1")
101
>>> readout_number("NS(=O)(=O)Oc1ccc(-c2sc3cc(O)ccc3c2C(=O)c2ccc(OCCN3CCCCC3)cc2)cc1")
75.6
>>> readout_number("O=S(=O)(Cc1ccccc1)c1nc2ccccc2s1")
61.1
>>> readout_number("CN1C[C@@H](c2ccc(Cl)cc2)[C@]2(NC(=S)N(c3ccccc3)C2=O)[C@@]12C(=O)NC1C=CC(Br)=C[C@H]12 (stereo partly drawn)")
56
>>> readout_number("COc1cc2c(cc1OC)-c1ccc3cc4c(cc3c1N(CCCN(C)C)C2)OCO4")
21.7
>>> readout_number("Cl.Fc1c[c-]c(-c2ccccn2)c(F)c1.[Pt].c1ccc([PH+](c2ccccc2)c2ccccc2[PH+](c2ccccc2)c2ccccc2)cc1")
-77.9
>>> readout_number("C=C1c2c(C)nn(-c3ccc(S(N)(=O)=O)cc3)c2N(C)C23CC1C1(C)c4c(C)nn(-c5ccc(S(N)(=O)=O)cc5)c4N(C)C(C)(CC12)C3 (stereo not drawn)")
49.1
>>> readout_number("CCOC(=O)c1c(C)[nH]c(C(=O)CCC(=O)OC)c1C")
104
